tested on: Candida albicans; assay: Antifungal activity against Candida albicans ATCC 44859 after 24 hrs by microbroth dilution method; assay type: functional; conditions: ATCC 44859, 24 h
MIC listing for selected compounds.

| Structure As Smiles | Target Of Assay | MIC |
| --- | --- | --- |
| O=C(Nc1ccccc1)Oc1ccc(Cl)cc1C(=O)Nc1ccc(Br)cc1 | Candida albicans | > 500 µM |
| O=C(NC12CC3CC(CC(C3)C1)C2)Oc1ccc(Cl)cc1C(=O)Nc1ccc(Br)cc1 | Candida albicans | > 125 µM |
| O=C(NCc1ccccc1)Oc1ccc(Cl)cc1C(=O)Nc1ccc(Br)cc1 | Candida albicans | 62.5 µM |
| O=C(NCc1ccccc1)Oc1ccc(Cl)cc1C(=O)Nc1ccc(F)cc1 | Candida albicans | 250 µM |
| O=C(NC1CCCCC1)Oc1ccc(Cl)cc1C(=O)Nc1ccc(F)cc1 | Candida albicans | > 125 µM |
| O=C(Nc1ccccc1)Oc1ccc(Cl)cc1C(=O)Nc1ccc(F)cc1 | Candida albicans | > 250 µM |
| O=C(NCCc1ccccc1)Oc1ccc(Cl)cc1C(=O)Nc1ccc(F)cc1 | Candida albicans | 250 µM |
| O=C(NCCc1ccccc1)Oc1ccc(Cl)cc1C(=O)Nc1ccc(Cl)cc1 | Candida albicans | > 500 µM |
| O=C(NC1CCCCC1)Oc1ccc(Cl)cc1C(=O)Nc1ccc(Cl)cc1 | Candida albicans | > 125 µM |
| O=C(NC1CCCCC1)Oc1ccccc1C(=O)Nc1ccccc1 | Candida albicans | > 500 µM |

====

tested on: Staphylococcus aureus; test: Antibacterial activity against Staphylococcus aureus CCM 4516/08 after 48 hrs by microbroth dilution method; assay type: functional; conditions: CCM 4516/08, 48 h

| Compound | MIC [µM] |
| --- | --- |
| O=C(NCCc1ccccc1)Oc1ccc(Cl)cc1C(=O)Nc1ccc(Br)cc1 | 1.95 |
| O=C(NC1CCCCC1)Oc1ccc(Cl)cc1C(=O)Nc1ccc(Cl)cc1 | 7.81 |
| O=C(NCCc1ccccc1)Oc1ccccc1C(=O)Nc1ccccc1 | 125 |
| O=C(NCCc1ccccc1)Oc1ccc(Cl)cc1C(=O)Nc1ccc(Cl)cc1 | 15.6 |
| O=C(NC1CCCCC1)Oc1ccc(Cl)cc1C(=O)Nc1ccc(F)cc1 | 15.6 |
| O=C(Nc1ccccc1)Oc1ccc(Cl)cc1C(=O)Nc1ccc(F)cc1 | 7.81 |
| O=C(Nc1ccccc1)Oc1ccc(Cl)cc1C(=O)Nc1ccc(Br)cc1 | 0.98 |
| O=C(NCCc1ccccc1)Oc1ccc(Cl)cc1C(=O)Nc1ccc(F)cc1 | 15.6 |
| O=C(Nc1ccccc1)Oc1ccc(Cl)cc1C(=O)Nc1ccc(Cl)cc1 | 31.2 |
| O=C(NC12CC3CC(CC(C3)C1)C2)Oc1ccc(Cl)cc1C(=O)Nc1ccc(Cl)cc1 | 15.6 |
| O=C(NC12CC3CC(CC(C3)C1)C2)Oc1ccc(Cl)cc1C(=O)Nc1ccc(Br)cc1 | 1.95 |
| O=C(NC1CCCCC1)Oc1ccc(Cl)cc1C(=O)Nc1ccc(Br)cc1 | 0.98 |
| O=C(NCc1ccccc1)Oc1ccc(Cl)cc1C(=O)Nc1ccc(F)cc1 | 15.6 |
| O=C(NC1CCCCC1)Oc1ccccc1C(=O)Nc1ccccc1 | 250 |
| O=C(NCc1ccccc1)Oc1ccccc1C(=O)Nc1ccccc1 | 250 |
| O=C(NCc1ccccc1)Oc1ccc(Cl)cc1C(=O)Nc1ccc(Br)cc1 | 0.98 |
| O=C(Nc1ccccc1)Oc1ccccc1C(=O)Nc1ccccc1 | 500 |
| O=C(NCc1ccccc1)Oc1ccc(Cl)cc1C(=O)Nc1ccc(Cl)cc1 | 15.6 |
| CC1(C)S[C@@H]2[C@H](NC(=O)Cc3ccccc3)C(=O)N2[C@H]1C(=O)O [PENICILLIN G] | 0.98 |
